Biological target: Growth hormone secretagogue receptor type 1 (Homo sapiens)
Sequence (Q92847 whole entry): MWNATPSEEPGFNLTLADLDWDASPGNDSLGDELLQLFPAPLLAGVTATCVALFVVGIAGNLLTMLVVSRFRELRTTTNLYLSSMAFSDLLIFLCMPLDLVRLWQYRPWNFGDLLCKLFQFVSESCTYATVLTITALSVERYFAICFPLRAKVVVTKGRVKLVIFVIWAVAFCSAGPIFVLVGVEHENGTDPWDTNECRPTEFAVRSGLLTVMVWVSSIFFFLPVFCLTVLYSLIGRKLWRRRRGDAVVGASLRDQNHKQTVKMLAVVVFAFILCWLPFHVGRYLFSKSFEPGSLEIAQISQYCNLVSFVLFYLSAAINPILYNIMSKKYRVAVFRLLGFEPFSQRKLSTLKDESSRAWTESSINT
Test: Displacement of [125I]His9-ghrelin from human cloned GHS1a receptor expressed in LLC PK1 cells
Lab note - cut at 100 nM for IC50: 1 if strictly below, 0 if not.

Molecule	Category label
O=C(N[C@H](Cc1c[nH]c2ccccc12)c1nnc(CCc2c[nH]c3ccccc23)n1Cc1ccccc1)C1CCNCC1	1
COc1ccc(Cn2c(CCC3C=Nc4ccccc43)nnc2[C@@H](Cc2c[nH]c3ccccc23)NC(=O)CN)cc1 (stereo partly specified)	0
COc1ccc(-n2c(CCc3ccccc3)nnc2[C@@H](Cc2c[nH]c3ccccc23)NC(=O)CN)c(OC)c1	0
CCc1ccc(Cn2c(CCc3ccccc3)nnc2[C@@H](Cc2c[nH]c3ccccc23)NC(=O)CN)cc1	0
COc1ccc(Cn2c(CCc3ccccc3)nnc2[C@@H](Cc2c[nH]c3ccccc23)NC(=O)[C@@H]2CCCCN2)c(OC)c1	0
CCc1ccc(-n2c(CCc3c[nH]c4ccccc34)nnc2[C@@H](Cc2c[nH]c3ccccc23)NC(=O)CN)cc1	0
O=C(N[C@H](Cc1c[nH]c2ccccc12)c1nnc(CCc2c[nH]c3ccccc23)n1Cc1ccccc1)[C@H]1CCCNC1	1
COc1ccc(Cn2c(CCc3ccccc3)nnc2[C@@H](Cc2c[nH]c3ccccc23)NC(=O)[C@@H]2C[C@@H](O)CN2)cc1	0

Q: I'd appreciate it if you could check whether `Cc1ncccc1-n1c(CCc2ccccc2)nnc1[C@@H](Cc1c[nH]c2ccccc12)NC(=O)C1CCNCC1` has IC50 smaller than 100 nM.
A: 0

Q: I'd appreciate it if you could check whether `CCc1ccc(-n2c(CCc3c[nH]c4ccccc34)nnc2[C@@H](Cc2c[nH]c3ccccc23)NC(=O)C2CCNCC2)cc1` has IC50 smaller than 100 nM.
A: 1

Q: I'd appreciate it if you could check whether `NCC(=O)N[C@H](Cc1c[nH]c2ccccc12)c1nnc(CCc2ccccc2)n1-c1ccccc1` has IC50 smaller than 100 nM.
A: 0

Q: I'd appreciate it if you could check whether `CCc1ccc(-n2c(CCc3c[nH]c4ccccc34)nnc2[C@@H](Cc2c[nH]c3ccccc23)NC(=O)[C@@H]2CCCN2)cc1` has IC50 smaller than 100 nM.
A: 0

Q: I'd appreciate it if you could check whether `COc1ccc(Cn2c(CCc3c[nH]c4ccccc34)nnc2[C@@H](Cc2c[nH]c3ccccc23)NC(=O)[C@H]2CCCNC2)c(OC)c1` has IC50 smaller than 100 nM.
A: 1

Q: I'd appreciate it if you could check whether `CCc1ccc(Cn2c(CCc3ccccc3)nnc2[C@@H](Cc2c[nH]c3ccccc23)NC(=O)[C@H]2CCCNC2)cc1` has IC50 smaller than 100 nM.
A: 0

Q: I'd appreciate it if you could check whether `COc1ccc(Cn2c(CCc3ccccc3)nnc2[C@@H](Cc2c[nH]c3ccccc23)NC(=O)CN)c(OC)c1` has IC50 smaller than 100 nM.
A: 0

Q: I'd appreciate it if you could check whether `COc1ccc(Cn2c(CCc3c[nH]c4ccccc34)nnc2[C@@H](Cc2c[nH]c3ccccc23)NC(=O)[C@@H]2CCCN2)c(OC)c1` has IC50 smaller than 100 nM.
A: 1

====

Assign Activity to each entry below.
Target: Growth hormone secretagogue receptor type 1 (Homo sapiens)
Experiment: Activity at human GHS1a receptor expressed in CHO cells assessed as accumulation of intracellular calcium level at 10 uM relative to ghrelin
Type: functional, cell-based
Give the value; after it, write the unit.

Worked examples, 3 molecules total:
Compound	Activity
COc1ccc(Cn2c(CCc3ccccc3)nnc2[C@@H](Cc2c[nH]c3ccccc23)NC(=O)CN)cc1	0%
CCc1ccc(Cn2c(CCc3ccccc3)nnc2[C@@H](Cc2c[nH]c3ccccc23)NC(=O)C2CCNCC2)cc1	101%
COc1ccc(Cn2c(CCc3ccccc3)nnc2[C@@H](Cc2c[nH]c3ccccc23)NC(=O)[C@@H]2CCCNC2)cc1	89%

Parameters: items (list). Returns: Activity for each item.
1. COc1ccc(Cn2c(CCc3c[nH]c4ccccc34)nnc2[C@@H](Cc2c[nH]c3ccccc23)NC(=O)[C@@H]2CCCN2)cc1
2. Cc1ncccc1-n1c(CCc2ccccc2)nnc1[C@@H](Cc1c[nH]c2ccccc12)NC(=O)C1CCNCC1
3. COc1ccc(Cn2c(CCc3c[nH]c4ccccc34)nnc2[C@@H](Cc2c[nH]c3ccccc23)NC(=O)[C@H]2CCCN2)cc1
4. CC(C)(N)C(=O)N[C@H](Cc1c[nH]c2ccccc12)c1nnc(CCc2c[nH]c3ccccc23)n1Cc1ccccc1
5. COc1ccc(Cn2c(CCc3ccccc3)nnc2[C@@H](Cc2c[nH]c3ccccc23)NC(=O)[C@H]2CCCCN2)cc1

A:
["2%", "78%", "7%", "73%", "7%"]
